pIC50: −log10 of the molar value.
Here, molecules appear alongside pIC50 reported for NAD-dependent protein deacetylase sirtuin-2 (Homo sapiens) in the literature.
measure: pIC50

{"input.smiles": "C[C@H](NC(=O)[C@H](CCCCNC(=S)CNC(=O)c1ccccc1Nc1cccc(OCCc2ccccc2)c1)NC(=O)OCc1ccccc1)C(N)=O", "tested.on": "NAD-dependent protein deacetylase sirtuin-2 (Homo sapiens)", "bound.sign": "=", "quantitative.result": 7.26}
{"input.smiles": "CCn1c(=O)c2[nH]c(SSc3nc4c([nH]3)c(=O)n(CC)c(=O)n4CC)nc2n(CC)c1=O", "tested.on": "NAD-dependent protein deacetylase sirtuin-2 (Homo sapiens)", "bound.sign": "=", "quantitative.result": 5.93}
{"input.smiles": "C#CCCCC1(CCC(=O)N[C@@H](CCCCNC(=S)CCC(=O)O)C(=O)N[C@@H](C)C(=O)N[C@@H](C)C(=O)OC)N=N1", "tested.on": "NAD-dependent protein deacetylase sirtuin-2 (Homo sapiens)", "bound.sign": "<", "quantitative.result": 2.30}
